Data provenance: PubChem BioAssay AID2060487

Tested on: 997537-175-T-J1-PDC complex spheroid viability
Test: Anticancer human tumor 997537-175-T-J1-PDC patient-derived colon adenocarcinoma cell line growth inhibition [GQUAD]
Conditions: curve of first compound; second compound 1 µM
measurement_type: IC50 (µM)
Give a bare numeral; the unit µM is implied.

**Q:** I would be grateful if you could share the reported IC50 for CC(=O)O[C@H]1C(=O)[C@@]2(C)[C@H]([C@H](OC(=O)c3ccccc3)[C@]3(O)C[C@H](OC(=O)[C@H](O)[C@@H](NC(=O)c4ccccc4)c4ccccc4)C(C)=C1C3(C)C)[C@]1(OC(C)=O)CO[C@@H]1C[C@@H]2O + Cc1[nH]c2ccc(F)cc2c1-c1nc2c3cccnc3c3ncccc3c2[nH]1 .
**A:** 3.63

**Q:** I would be grateful if you could share the reported IC50 for Cc1[nH]c2ccccc2c1CCNCc1ccc(/C=C/C(=O)NO)cc1 + CN(C)c1ccc(Nc2c3ccc(NC(=O)CCN4CCCC4)cc3nc3cc(NC(=O)CCN4CCCC4)ccc23)cc1 .
**A:** 0.199

----------
System: 997537-175-T-J1-PDC complex spheroid viability
Assay: Anticancer human tumor 997537-175-T-J1-PDC cell line growth inhibition [GQUAD];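 also: spheroids exposed to the agents for 7 days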;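 as to viability, T/C: 100% = DMSO vehicle control viability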
Details: second compound 1 µM; first compound 0.316 µM; stronger effect = lower value
Give viability, T/C for every item shown.

**Q:** I would be grateful if you could share the reported viability, T/C for CC(C)n1c(=O)n(C)c2cnc3cc(F)c(-c4ccc(OCCCN5CCCCC5)nc4)cc3c21 + Cc1cnc(CNC(=O)c2c(=O)c3ccc(N4CCCN(C)CC4)nc3n3c2sc2ccccc23)cn1 .
**A:** 111%

**Q:** I would be grateful if you could share the reported viability, T/C for C=CCn1c(=O)c2cnc(Nc3ccc(N4CCN(C)CC4)cc3)nc2n1-c1cccc(C(C)(C)O)n1 + CN(C)c1ccc(Nc2c3ccc(NC(=O)CCN4CCCC4)cc3nc3cc(NC(=O)CCN4CCCC4)ccc23)cc1 .
**A:** 82.1%

**Q:** I would be grateful if you could share the reported viability, T/C for CCc1c2c(nc3ccc(O)cc13)-c1cc3c(c(=O)n1C2)COC(=O)[C@]3(O)CC + CN(C)c1ccc(Nc2c3ccc(NC(=O)CCN4CCCC4)cc3nc3cc(NC(=O)CCN4CCCC4)ccc23)cc1 .
**A:** 3.86%

**Q:** I would be grateful if you could share the reported viability, T/C for CCc1c2c(nc3ccc(O)cc13)-c1cc3c(c(=O)n1C2)COC(=O)[C@]3(O)CC + Cc1cnc(CNC(=O)c2c(=O)c3ccc(N4CCCN(C)CC4)nc3n3c2sc2ccccc23)cn1 .
**A:** 2.05%

**Q:** I would be grateful if you could share the reported viability, T/C for O=C(c1cc(Cc2n[nH]c(=O)c3ccccc23)ccc1F)N1CCN(C(=O)C2CC2)CC1 + Cc1cnc(CNC(=O)c2c(=O)c3ccc(N4CCCN(C)CC4)nc3n3c2sc2ccccc23)cn1 .
**A:** 105%

----------
Give viability, T/C for every item shown.
Tested on: 997537-175-T-J1-PDC complex spheroid viability
Experiment: Anticancer human tumor 997537-175-T-J1-PDC cell line growth inhibition [GQUAD];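 also: spheroids exposed to the agents for 7 days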;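 as to viability, T/C: 100% = DMSO vehicle control viability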
Settings: second compound 0.316 µM; first compound 3.16 µM; stronger effect = lower value

**Q:** I would be grateful if you could share the reported viability, T/C for CC(C)n1c(=O)n(C)c2cnc3cc(F)c(-c4ccc(OCCCN5CCCCC5)nc4)cc3c21 + Cc1[nH]c2ccc(F)cc2c1-c1nc2c3cccnc3c3ncccc3c2[nH]1 .
**A:** 116%

**Q:** I would be grateful if you could share the reported viability, T/C for COc1cccc2c1C(=O)c1c(O)c3c(c(O)c1C2=O)CC(O)(C(=O)CO)CC3OC1CC(N)C(O)C(C)O1 (stereo not drawn) + CN(C)c1ccc(Nc2c3ccc(NC(=O)CCN4CCCC4)cc3nc3cc(NC(=O)CCN4CCCC4)ccc23)cc1 .
**A:** 94.6%

**Q:** I would be grateful if you could share the reported viability, T/C for Cc1cccc(N(C)C(=O)C2C(O)CCN2c2nc(C)cc(C(F)(F)F)c2C#N)c1 (stereo not drawn) + Cc1[nH]c2ccc(F)cc2c1-c1nc2c3cccnc3c3ncccc3c2[nH]1 .
**A:** 100%
